EXPERIMENTAL_READOUT: melting point

COc1cc2ncnc(Nc3ccc(F)c(Cl)c3)c2cc1O[C@H]1CCNC1.Cl.Cl: 251 °C
COc1cc2ncnc(Nc3ccc(F)c(Cl)c3)c2cc1O[C@H]1CC[C@@H](NS(C)(=O)=O)CC1: 234 °C
CN(C)C(=O)CN1CCC(Oc2ccc3ncnc(Nc4ccc(F)c(Cl)c4)c3c2)CC1: 233 °C
Fc1ccc(Nc2ncnc3cc(OCCCN4CCOCC4)c(OC4CCOCC4)cc23)cc1Cl: 205 °C
COc1cc2ncnc(Nc3ccc(F)c(Cl)c3)c2cc1OC1CCN(C(=O)N2CCCOCC2)CC1: 171 °C
COc1cc2ncnc(Nc3ccc(F)c(Cl)c3)c2cc1O[C@H]1CCOC1: 184 °C
COc1cc2ncnc(Nc3ccc(F)c(Cl)c3)c2cc1O[C@H]1CC[C@@H](N)CC1: 232 °C

###

Entries annotated with measured pIC50
Target: human EGF-receptor kinase (Homo sapiens, UniProt P00533)
Construct: GST
Sequence (P00533 688-1210): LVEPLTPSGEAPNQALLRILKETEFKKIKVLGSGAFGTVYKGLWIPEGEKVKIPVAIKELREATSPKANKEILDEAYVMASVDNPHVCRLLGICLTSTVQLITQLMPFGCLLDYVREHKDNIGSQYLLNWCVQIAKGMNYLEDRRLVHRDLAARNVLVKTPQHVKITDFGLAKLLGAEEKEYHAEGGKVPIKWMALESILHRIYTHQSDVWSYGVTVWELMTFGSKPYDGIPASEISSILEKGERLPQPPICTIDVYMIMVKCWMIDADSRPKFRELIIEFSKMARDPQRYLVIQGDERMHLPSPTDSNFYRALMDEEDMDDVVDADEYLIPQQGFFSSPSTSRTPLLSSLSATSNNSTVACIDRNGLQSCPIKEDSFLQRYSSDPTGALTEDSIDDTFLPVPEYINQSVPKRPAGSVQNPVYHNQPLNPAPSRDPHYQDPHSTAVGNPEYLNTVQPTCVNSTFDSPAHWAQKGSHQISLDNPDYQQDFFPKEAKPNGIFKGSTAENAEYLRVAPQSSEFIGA
Assay: Inhibition of human EGF-receptor kinase (enzyme assay, ELISA read-out)
Conditions: cytoplasmic tyrosine kinase domain as GST fusion protein, substrate pEY/bio-pEY, 30 minutes at ambient temperature
pIC50: −log10 of the molar value.
EXPERIMENTAL_READOUT: pIC50

COc1cc2ncnc(Nc3ccc(F)c(Cl)c3)c2cc1O[C@H]1CC[C@H](NS(C)(=O)=O)CC1 [3(1)]: 9.85
COc1cc2ncnc(Nc3ccc(F)c(Cl)c3)c2cc1OC1CCN(S(C)(=O)=O)CC1 [3(2)]: 9.66
COc1cc2ncnc(Nc3ccc(F)c(Cl)c3)c2cc1O[C@H]1CC[C@@H](NS(C)(=O)=O)CC1 [Example 3]: 9.05
COc1cc2ncnc(Nc3ccc(F)c(Cl)c3)c2cc1OC1CCN(C(=O)N2CCOCC2)CC1 [3(7)]: 9.15
COc1cc2ncnc(Nc3ccc(F)c(Cl)c3)c2cc1O[C@H]1CC[C@H](NC(=O)OC(C)(C)C)CC1 [1(4)]: 9.22
COc1cc2ncnc(Nc3ccc(F)c(Cl)c3)c2cc1O[C@H]1CC[C@@H](NC(=O)OC(C)(C)C)CC1 [1(2)]: 8.70
COc1cc2ncnc(Nc3ccc(F)c(Cl)c3)c2cc1O[C@@H]1CCOC1 [1(3)]: 8.96
COc1cc2ncnc(Nc3ccc(F)c(Cl)c3)c2cc1O[C@H]1CC[C@H](N)CC1 [2(1)]: 9.80
COc1cc2ncnc(Nc3ccc(F)c(Cl)c3)c2cc1O[C@H]1CC[C@H](NC(=O)N2CCOCC2)CC1 [3(17)]: 9.52
COCC(=O)N1CCC(Oc2cc3c(Nc4ccc(F)c(Cl)c4)ncnc3cc2OC)CC1 [3(8)]: 9.22
COc1cc2ncnc(Nc3ccc(F)c(Cl)c3)c2cc1OC1CCCOC1 (stereo not shown) [1(6)]: 9.16
COc1cc2ncnc(Nc3ccc(F)c(Cl)c3)c2cc1O[C@H]1CC[C@@H](N)CC1 [Example 2]: 8.35
COc1cc2ncnc(Nc3ccc(F)c(Cl)c3)c2cc1O[C@H]1CC[C@@H](NS(=O)(=O)CCCN2CCOCC2)CC1 [Example 4]: 9.39
COCCOc1cc2ncnc(Nc3ccc(F)c(Cl)c3)c2cc1OC1CCOCC1 [7(5)]: 9.00
COc1cc2ncnc(Nc3ccc(F)c(Cl)c3)c2cc1O[C@H]1CC[C@H](NS(=O)(=O)CCCN2CCOCC2)CC1 [4(1)]: 9.80
CC(=O)NCCOc1cc2ncnc(Nc3ccc(F)c(Cl)c3)c2cc1OC1CCOCC1 [3(20)]: 9.00
COc1cc2ncnc(Nc3ccc(F)c(Cl)c3)c2cc1OC1CCN(C(=O)OC(C)(C)C)CC1 [1(5)]: 9.22
COc1cc2ncnc(Nc3ccc(F)c(Cl)c3)c2cc1O[C@H]1CC[C@H](NS(=O)(=O)N2CCOCC2)CC1 [3(18)]: 9.40
CS(=O)(=O)NCCOc1cc2ncnc(Nc3ccc(F)c(Cl)c3)c2cc1OC1CCOCC1 [3(21)]: 9.40
COc1cc2ncnc(Nc3ccc(F)c(Cl)c3)c2cc1OC1CCN(C#N)CC1 [3(9)]: 9.70
COc1cc2ncnc(Nc3ccc(F)c(Cl)c3)c2cc1OC1CCN(S(=O)(=O)N2CCOCC2)CC1 [3(11)]: 10.00
COc1cc2ncnc(Nc3ccc(F)c(Cl)c3)c2cc1O[C@H]1CC[C@H](NS(=O)(=O)N(C)C)CC1 [3(16)]: 9.00
COc1cc2ncnc(Nc3ccc(F)c(Cl)c3)c2cc1OC1CCN(CCNC(C)=O)CC1 [3(15)]: 9.00
COc1cc2ncnc(Nc3ccc(F)c(Cl)c3)c2cc1OC1CCNCC1 [Example 2(2)]: 9.66
COc1cc2ncnc(Nc3ccc(F)c(Cl)c3)c2cc1OC1CCOCC1 [1(1)]: 9.92
